molecular target: full-length human PDE4D5 isozyme (Homo sapiens); construct: The full-length human PDE4D5 isozyme; His6 (N); TEV cleavage site (N); made in house; host or cells: baculovirus infected insect cells (unpurified lysate); assay: PDE4 IC50 determination by Scintillation Proximity Assay, PDE4D5; type: biochemical; conditions: Table 1B, Formula I compounds; read-out: IC50 PDE4D5
Sequence (Q08499 1-745 isoform Q08499-6): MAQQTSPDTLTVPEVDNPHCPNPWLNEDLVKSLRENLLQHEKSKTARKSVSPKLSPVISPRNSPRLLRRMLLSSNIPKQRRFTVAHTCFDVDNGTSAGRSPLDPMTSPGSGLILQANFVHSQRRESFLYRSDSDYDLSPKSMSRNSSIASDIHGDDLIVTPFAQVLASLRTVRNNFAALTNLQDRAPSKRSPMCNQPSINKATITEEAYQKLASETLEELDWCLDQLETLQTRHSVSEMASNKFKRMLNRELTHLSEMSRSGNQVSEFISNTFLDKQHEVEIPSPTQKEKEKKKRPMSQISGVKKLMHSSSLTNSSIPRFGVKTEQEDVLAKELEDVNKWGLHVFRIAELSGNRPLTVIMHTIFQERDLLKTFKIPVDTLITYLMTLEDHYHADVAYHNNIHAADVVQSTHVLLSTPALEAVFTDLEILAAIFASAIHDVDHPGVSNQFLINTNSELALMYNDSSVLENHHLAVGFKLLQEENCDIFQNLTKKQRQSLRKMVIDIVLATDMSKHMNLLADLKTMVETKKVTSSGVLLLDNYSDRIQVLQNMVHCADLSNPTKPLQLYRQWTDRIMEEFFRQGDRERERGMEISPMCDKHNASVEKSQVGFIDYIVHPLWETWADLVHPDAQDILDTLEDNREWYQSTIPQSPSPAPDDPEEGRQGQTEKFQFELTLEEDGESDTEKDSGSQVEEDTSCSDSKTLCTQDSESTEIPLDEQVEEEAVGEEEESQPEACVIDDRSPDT
Reported values of IC50 for individual entries

>  <SMILES_STR>
Cc1c(Nc2ccccc2)sc(C(=O)c2ccc(Cl)cc2)c1N

>  <IC50>
< 10 µM

$$$$
>  <SMILES_STR>
Cc1c(Nc2ccc(Oc3ccccc3)cc2)sc(C(=O)c2ccccc2)c1N

>  <IC50>
> 10 µM

$$$$

// next item, IC50 requested
Enquiry: // Input: CC(C)CNc1sc(C(=O)c2cc(-c3ccccc3)no2)c(N)c1C(N)=O . Output its IC50 only.
Return: < 10 µM
